# Test system: EKVX
# protocol-details: NCI tumour cell line growth inhibition, 48 h
The source made the active and inactive calls. No stated cut-off is given here; in the data, active = GI50 up to about 1.1 µM and inactive = higher.
metric-name: GI50

Worked cases, answers included:
[
  {
    "compound": "CCC1c2[nH]c3ccccc3c2C[C@H]2C(=O)NC(Cc3ccccc3)C(=O)N12 (stereo partly drawn)",
    "metric-name": "GI50",
    "result": "30.3 µM (inactive)"
  },
  {
    "compound": "COc1cc(/C=C2\\[C@H]3c4c(c(OC)c(C)c(OC)c4OC)C[C@@H](C(=O)N2Cc2ccccc2)N3C(=O)OC(C)C)c(OC)c(C)c1OC",
    "metric-name": "GI50",
    "result": "52.5 µM (inactive)"
  },
  {
    "compound": "COC(=O)[C@@H]1[C@@H](c2cccc(Cl)c2)[C@H](C(=O)OC)C2(C[C@@]1(C)O)NCCS2 (stereo partly drawn)",
    "metric-name": "GI50",
    "result": "> 100 µM (inactive)"
  },
  {
    "compound": "COc1ccc2nc3c4c(nccc4c2c1)-c1ncccc1C3=O",
    "metric-name": "GI50",
    "result": "0.132 µM (active)"
  },
  {
    "compound": "CN1CCN(c2ccc3nc(C4=C(O)C(=O)[C@@H]5C(=C4O)N=C(CO)N5C)[nH]c3n2)CC1",
    "metric-name": "GI50",
    "result": "> 100 µM (inactive)"
  },
  {
    "compound": "CCNC(=S)NNC(=O)c1nsc2ccccc12",
    "metric-name": "GI50",
    "result": "18.7 µM (inactive)"
  },
  {
    "compound": "CCNC(=O)c1cc(Cl)ccc1NC(=O)C12CC3CC(CC(C3)C1)C2",
    "metric-name": "GI50",
    "result": "21.4 µM (inactive)"
  },
  {
    "compound": "Nc1nc(Cl)cc(NCC2(CO)CCC(Cc3ccccc3)C2)n1 (stereo not drawn)",
    "metric-name": "GI50",
    "result": "8.71 µM (inactive)"
  }
]

Inquiry: Given the entry `CCCCNS(=O)(=O)c1ccc(-c2ccc3c(c2)-c2ccc(S(=O)(=O)NCCCC)cc2S3(=O)=O)cc1` , report its measured GI50.
Reply text: 39.4 µM (inactive)

Inquiry: Query (compound): `O=C1N/N=C\Nc2ccc(cc2)S(=O)(=O)c2ccc(cc2)/N=C\NNC1=O` ; field requested: GI50
Reply text: > 100 µM (inactive)

Inquiry: Looking for the measured GI50 of `CCN(CC)C(=O)c1cccc2c(OC)ccc(OC)c12` , can you help?
Reply text: > 100 µM (inactive)

Inquiry: So what does the record say about GI50 for `CC1=C(C(=O)Nc2ccccc2C)C(c2ccccc2O)C(C(=O)Nc2ccccc2C)=C(C)N1` ?
Reply text: 30.8 µM (inactive)

Inquiry: Can you share its GI50? I mean this compound: `O=C1/C(=C/c2ccccc2)CN(C(=O)OCC(Cl)(Cl)Cl)C/C1=C\c1ccccc1`
Reply text: > 10 µM (inactive)

* * *

# Test system: CCRF-CEM
# protocol-details: NCI tumour cell line growth inhibition, 48 h
Active and inactive are the calls of the source. Rule as the data show it: active = GI50 up to about 1.1 µM and inactive = higher.
Tick one outcome: active, inactive

[
  {
    "compound": "Cc1cccc2c(=O)c3c(O)cc(O)cc3n(C)c12",
    "label-class": "inactive"
  },
  {
    "compound": "Nc1ncnc2c1ncn2C1C=CC(COS(N)(=O)=O)C1 (stereo not given)",
    "label-class": "inactive"
  },
  {
    "compound": "Fc1ccc2c(c1)SC1Oc3ccccc3-c3c1c-2nn3-c1ccccc1 (stereo not given)",
    "label-class": "inactive"
  },
  {
    "compound": "Nc1ccc(C(=O)/C=C/c2ccccc2O)cc1",
    "label-class": "inactive"
  },
  {
    "compound": "Nc1ncnc2c1ncn2C1OC(CSC(F)(F)F)C(O)C1O (stereo not given)",
    "label-class": "inactive"
  }
]

Inquiry: Outcome logged for `OCc1ccccc1O[C@H]1O[C@H](CO)[C@@H](O)[C@H](O)[C@H]1O` in this assay:
Reply text: inactive

Inquiry: Please state the recorded outcome for this compound: CC(CC(=O)Nc1ccc(NC(=O)CC(C)/N=N\C(N)=O)cc1)/N=N\C(N)=O (stereo not given)
Reply text: inactive

Inquiry: How did this test come out for `COc1c(N2CCCCC2)c2c(=O)c3ccccc3oc2c2c3ccccc3n(C)c12` ?
Reply text: inactive

Inquiry: How did this test come out for `CCN(CC)CCn1c2cc3c(cc2c(=O)c2cccnc21)OCO3` ?
Reply text: inactive

Inquiry: Called result for COC(=O)[C@@H]1[C@@H](c2cccc(Cl)c2)[C@H](C(=O)OC)C2(C[C@@]1(C)O)NCCS2 (stereo not given in full)
Reply text: active

Inquiry: Given `C[C@]12C(=O)OC[C@H](c3ccccc3)N1C(=O)N(Cc1ccccc1)[C@@H]2CO` , state the outcome it received in this test.
Reply text: inactive

Inquiry: Recorded test call requested for `CC[C@@H]1CC[C@@H]2[C@H](CC[C@]3(C)[C@@H](O)CC[C@@H]23)[C@H]1CO`
Reply text: inactive

Inquiry: Called result for COC(=O)C(CC(=O)Nc1ccc(Cl)c(Cl)c1)C(=O)C(=O)Nc1ccc(Cl)c(Cl)c1 (stereo not given)
Reply text: inactive

Inquiry: What outcome does the record of this test show for C=CCOC1OC(CO[Si](C)(C)C(C)(C)C)C(OCc2ccccc2)C(OCc2ccccc2)C1OCc1ccccc1 (stereo not given) ?
Reply text: inactive

Inquiry: Given `O=C(N/N=C\c1cccc2c([N+](=O)[O-])cccc12)Nc1ccccc1` , state the outcome it received in this test.
Reply text: inactive

* * *

# Tested on: K562
# protocol-details: NCI tumour cell line growth inhibition, 48 h
The source made the active and inactive calls. Rule as the data show it: active = GI50 up to about 1.1 µM and inactive = higher.
Below: a set of entries, each annotated with reported GI50.

Example results:
[
  {
    "compound": "C[N+](C)(C)CCN[N+]1(C)CCCc2ccccc21 (stereo unspecified)",
    "GI50": "39 µM (inactive)"
  },
  {
    "compound": "COC(=O)N/N=C(\\C)C(CN1CCOCC1)C(c1ccccc1)c1cc2ccccc2oc1=O (stereo unspecified)",
    "GI50": "70.5 µM (inactive)"
  },
  {
    "compound": "COC1(OC)CC(CO)(CNc2nc(N)nc(Cl)c2/C=N\\O)C1",
    "GI50": "17.7 µM (inactive)"
  },
  {
    "compound": "CC(=O)NS(=O)(=O)c1ccc(NC(=O)COC(=O)c2cccc3c(=O)c4ccccc4[nH]c23)cc1",
    "GI50": "> 100 µM (inactive)"
  },
  {
    "compound": "CC(C)(C)OC(=O)N[C@H]1CC2(C=C(Cl)C(=O)C(Cl)=C2)OC1=O",
    "GI50": "2.46 µM (inactive)"
  }
]

Inquiry: Entry `N#Cc1cccc(NC(=O)c2ccc(C(=O)O)c(C(=O)c3ccc(C(=O)O)c(C(=O)Nc4cccc(C#N)c4)c3)c2)c1` has what GI50?
Reply text: > 100 µM (inactive)

Inquiry: # query: GI50 of entry `Cc1cc2c(C=O)n[nH]c2c(C#N)c1C`
Reply text: > 100 µM (inactive)

Inquiry: Recorded GI50 of `COc1ccccc1NC(=O)CC(=O)NNCC(=O)Nc1nc(-c2ccccc2)cs1` , please.
Reply text: > 100 µM (inactive)

Inquiry: Request the reported GI50 associated with `NC(=O)CN1CC(C2=C(O)CN(CC(N)=O)C2=O)=CC1=O`
Reply text: > 100 µM (inactive)

Inquiry: Consider the compound O=C(CC1(O)C(=O)Nc2ccc(Br)cc21)c1ccc(Cl)cc1Cl (stereo unspecified) and give its measured GI50.
Reply text: 39.6 µM (inactive)

Inquiry: For the compound shown here, CSCCC(NCc1c(O)ccc2ccc(=O)oc12)C(=O)O (stereo unspecified) , give the reported GI50.
Reply text: > 100 µM (inactive)

* * *

# System: HT-29
# protocol-details: NCI tumour cell line growth inhibition, 48 h
Calls of active or inactive are those of the source. No stated cut-off is given here; in the data, active = GI50 up to about 1.1 µM and inactive = higher.
metric-name: GI50

Solved entries (count: 9):
[
  {
    "compound": "CNS(=O)(=O)NN(C)S(=O)(=O)c1ccc2ccccc2c1",
    "GI50": "> 100 µM (inactive)"
  },
  {
    "compound": "NC(CC(O)(c1ccccc1)c1ccccc1)c1ccccc1S (stereo not given)",
    "GI50": "14.5 µM (inactive)"
  },
  {
    "compound": "COC(=O)CC1(O)C(C=C(C)C)C(C(=O)OC)C(=O)C(C(=O)OC)C1C(=O)OC (stereo not given)",
    "GI50": "> 100 µM (inactive)"
  },
  {
    "compound": "Cc1c(C)c(C)c(-n2c(=O)n(C)c(=O)n2-n2c(=O)n(C)c(=O)n2-c2c(C)c(C)c(C)c(C)c2C)c(C)c1C",
    "GI50": "> 100 µM (inactive)"
  },
  {
    "compound": "CCCSS[C@H]1NC(=O)[C@H]1NC(=O)COc1ccccc1",
    "GI50": "19.8 µM (inactive)"
  },
  {
    "compound": "O=S(=O)(O)c1cc(/N=N/c2cc(S(=O)(=O)O)c3ccccc3c2O)ccc1/C=C/c1ccc(/N=N/c2cc(S(=O)(=O)O)c3ccccc3c2O)cc1S(=O)(=O)O",
    "GI50": "> 457 µM (inactive)"
  },
  {
    "compound": "CC1(C)C(=S)C(C)(C)C1=S",
    "GI50": "> 100 µM (inactive)"
  },
  {
    "compound": "Cc1cc(C)c2c(O)cc(-c3cccc(Cl)c3)nc2n1",
    "GI50": "0.122 µM (active)"
  },
  {
    "compound": "CCCC(=O)Nc1cc(/C=C/C(=O)N2CC(CCl)c3ccc(N)cc32)n(C)c1 (stereo not given)",
    "GI50": "0.284 µM (active)"
  }
]

Here is another compound to look at.
Inquiry: Item CC(C)CC1C(=O)NCCC(NC(=O)C(N)Cc2ccc(O)cc2)C(=O)NC(Cc2ccccc2)C(=O)NC(Cc2ccccc2)NC1=O (stereo not given) with HT-29 - GI50?
Reply text: > 100 µM (inactive)
